Measured pEC50 of individual entries
tested on: THP-1 cells; experiment: Lamp1 lysosomal exocytosis assay; assay type: cell-based; settings: Homo sapiens, 55 min, 55 min incubation, top dose 20 μM
pEC50: −log10 of the molar value.

Some entries whose results are on file:
O=C(NCCC(F)(F)F)N1CCC2(CC1)CN(S(=O)(=O)c1ccc(C(F)F)cc1)c1ccccc12 [Compound I-214]; ≤ 5.30
O=C(OCc1ccccc1)N1CCC2(CC1)CN(S(=O)(=O)c1ccc(C(F)F)cc1)c1ccccc12 [Compound I-81]; ≥ 6.30

Proceeding to the next compound to report its pEC50.
Given O=C(Nc1ccccc1)N1CCC2(CC1)CN(S(=O)(=O)c1ccc(C(F)F)cc1)c1ccccc12 [Compound I-197] , state its recorded pEC50.
≤ 5.30

====

test system: TFEB; assay: TFEB nuclear translocation assay; assay type: cell-based; settings: Homo sapiens; HeLa wt or HeLa TRPML1 KO cells, treated for 2 hrs; ratio of nuclear to ring-region TFEB intensity
pEC50: −log10 of the molar value.
Entries and their pEC50

Consider the following illustrative entries.
COc1ccc(NC(=O)N2CCC3(CC2)CN(S(=O)(=O)c2ccc(C(F)F)cc2)c2ccccc23)cc1OC; ≤ 5.00
O=S(=O)(c1cccc(C2CC2(F)F)c1)N1CC2(CCCC2)c2ccccc21 (stereo not drawn); 5.10 to 5.70
O=S(=O)(c1cccc(C2OCCO2)c1)N1CC2(CCCC2)c2ccccc21; 5.10 to 5.70
O=S(=O)(Cc1ccccc1)N1CC2(CCN(CC(F)(F)F)C2)c2ccccc21 (stereo not drawn); 5.10 to 5.70
COc1ccc(NC(=O)N2CCC3(CC2)CN(S(=O)(=O)c2ccc(C(F)F)cc2)c2ccccc23)c(OC)c1; 5.10 to 5.70
CC(F)(F)CN1CCC2(CC1)CN(S(=O)(=O)c1ccc(C(F)F)cc1)c1ccccc12; ≥ 5.70
O=C(OCc1ccccc1)N1CCC2(CC1)CN(C(=O)C1(c3ccccc3)CC1)c1ccccc12; 5.10 to 5.70
O=S(=O)(CC(F)c1ccccc1)N1CC2(CCCC2)c2ccccc21 (stereo not drawn); ≤ 5.00
O=S(=O)(c1ccn(C2CC2(F)F)n1)N1CC2(CCCC2)c2ccccc21 (stereo not drawn); ≤ 5.00
Cc1cnc2c(c1)N(S(=O)(=O)c1ccc(S(=N)(=O)N(C)C)cc1)CC21CCCCC1 (stereo not drawn); ≥ 5.70

Quick check: pEC50 of O=C(NC1COc2ccccc2C1)N1CCC2(CC1)CN(S(=O)(=O)c1ccc(C(F)F)cc1)c1ccccc12 (stereo not drawn) ?
≥ 5.70

Query (molecule): O=S(=O)(c1ccc(C(F)F)cc1)N1CC2(CCN(Cc3cnccn3)CC2)c2ccccc21 ; field requested: pEC50
≥ 5.70
